Where do these numbers come from? They come from the supplement of paper PMC6555819.

test system: PPARg:RXRa DBDmut IVT, anti-RXR (DBD mutation: RXRa K156A/R161A, NR concentration 270 nM, RXRa partner concentration 90 nM); test: PBM binding z-score (relative to random genomic background probes); higher = stronger binding; sequences stand for … in GC…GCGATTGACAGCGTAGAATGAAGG
reported-endpoint: PBM binding z-score
Answers are plain numbers.

{"sequence-text": "TCTAGTAGATCAATAGAGGTTAAGAAAGTGCGCT", "reported-endpoint": "PBM binding z-score", "experimental-result": 1.7}
{"sequence-text": "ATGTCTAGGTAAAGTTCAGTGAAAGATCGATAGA", "reported-endpoint": "PBM binding z-score", "experimental-result": 1.29}
{"sequence-text": "ACTAGCAGGCCAAGGGTTACTCAAGATTAGTCCG", "reported-endpoint": "PBM binding z-score", "experimental-result": 0.518}
{"sequence-text": "CGTCCAAGGTCAAGGTCCGTGAAAGAGACTCGAA", "reported-endpoint": "PBM binding z-score", "experimental-result": 3.62}
{"sequence-text": "CGTCCAAGGTCCTAGGAGGTCAGTGAAGACAGAT", "reported-endpoint": "PBM binding z-score", "experimental-result": -0.235}

Working through the 4 sequences below one at a time, give PBM binding z-score for each.
1. TCGAGTAGGTTAGGGGCCTTCAGAATGGCGTCGA
2. GCGAGCAGGCCATTTGGGTCACTCAATGACGGGC
3. CCTACTGGGCCACGAAAAGTCATTGATTCAGTGA
4. TCAATGAGGTTAAAGATCAGGGAACGTGGCGTCG

[out]
1: 1.32; 2: 0.844; 3: 5.95; 4: 2.63

----------
tested on: LXRa:RXRa (NR concentration 270 nM, RXRa partner concentration 90 nM); test: PBM binding z-score (relative to random genomic background probes); higher = stronger binding; sequences stand for … in GC…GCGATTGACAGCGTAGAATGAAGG
Give measured PBM binding z-score for each item. Keep answers brief.
One number for each entry.

{"sequence-text": "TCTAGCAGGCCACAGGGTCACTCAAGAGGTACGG", "reported-endpoint": "PBM binding z-score", "experimental-result": 1.69}
{"sequence-text": "TCTCGGAGGACACGAAGGTCAGAGGTTTCCAGAG", "reported-endpoint": "PBM binding z-score", "experimental-result": 1.38}
{"sequence-text": "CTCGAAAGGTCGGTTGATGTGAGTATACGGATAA", "reported-endpoint": "PBM binding z-score", "experimental-result": 1.52}
{"sequence-text": "CGTCCAAGGTCAATGCTAGGTCAGTGAGAGCATT", "reported-endpoint": "PBM binding z-score", "experimental-result": 5.68}

Working through the 3 sequences below one at a time, give PBM binding z-score for each.
1. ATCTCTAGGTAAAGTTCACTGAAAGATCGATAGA
2. TCTTGTAGATCTACAGGAGGTTAAGAAAGATCGA
3. CAAACTAGGTCACAGAGGCCAAAGTCCGTGCGTA

[out]
1: 3.16; 2: 1.18; 3: 3.79

----------
system: RXRa homodimer (NR concentration 180 nM); experiment: PBM binding z-score (relative to random genomic background probes); higher = stronger binding; sequences stand for … in GC…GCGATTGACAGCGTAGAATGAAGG
PBM binding z-score below 2 gives Not satisfied; PBM binding z-score at or above it gives Satisfied.

{"sequence-text": "CCGACTGGGGCAGAACGGTTACCATACCATCCGG", "system-name": "RXRa homodimer (NR concentration 180 nM)", "category": "Not satisfied"}
{"sequence-text": "ATCGATAGGTCGACGAGGTGAGTATACACCGTTT", "system-name": "RXRa homodimer (NR concentration 180 nM)", "category": "Not satisfied"}

[in] Form field: PBM binding z-score at least 2? Entry: `AGAATGAGGTTACCAAAGATCAGAGAAACGCTTG`
[out] Satisfied

[in] Form field: PBM binding z-score at least 2? Entry: `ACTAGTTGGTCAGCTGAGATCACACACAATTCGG`
[out] Not satisfied

[in] Form field: PBM binding z-score at least 2? Entry: `CCTATTGGGCCAAAGGTCATTGATTCCAATGCTC`
[out] Satisfied

[in] Form field: PBM binding z-score at least 2? Entry: `ATATGTAGCTTATCGGGTCATTCAGTTTGCGCAT`
[out] Satisfied

[in] Form field: PBM binding z-score at least 2? Entry: `CCGACTGGGTCATAAGGTTACCATAAGCCAGCCC`
[out] Satisfied

[in] Form field: PBM binding z-score at least 2? Entry: `AATACAGGGTCACAAGGCCAGAGTAGGTACGAAT`
[out] Satisfied

[in] Form field: PBM binding z-score at least 2? Entry: `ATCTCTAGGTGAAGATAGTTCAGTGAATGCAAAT`
[out] Not satisfied

[in] Form field: PBM binding z-score at least 2? Entry: `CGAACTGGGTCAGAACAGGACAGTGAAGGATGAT`
[out] Not satisfied

[in] Form field: PBM binding z-score at least 2? Entry: `CGAACTAGGTCATTGGCAGGACAGTGAATAGTAA`
[out] Satisfied

[in] Form field: PBM binding z-score at least 2? Entry: `TCTAGTTGGTCACGGAGGTCACAGACGACGGGTA`
[out] Satisfied

[in] Form field: PBM binding z-score at least 2? Entry: `TCTTGGAGGACACGAAGGTCAGAGCTTTCCAGAG`
[out] Not satisfied

[in] Form field: PBM binding z-score at least 2? Entry: `ACTCGGAGGACAAAGGGCAGAGCTACGCCAGTGA`
[out] Not satisfied

[in] Form field: PBM binding z-score at least 2? Entry: `AGAACGAGGGCAATGAGTTGATGGCACGGGTGGC`
[out] Not satisfied

[in] Form field: PBM binding z-score at least 2? Entry: `GCTATTAGTTGACAGGGCAACCGAATGATTCTCG`
[out] Not satisfied

[in] Form field: PBM binding z-score at least 2? Entry: `CCAGACAGGTGAGAAGGTGACTCAGCCTCGATTA`
[out] Not satisfied

[in] Form field: PBM binding z-score at least 2? Entry: `TCATGTAGGTAAAAGGTGAAAGTCGGTGTGGTAA`
[out] Satisfied

----------
tested on: PPARg:RXRa (NR concentration 180 nM, RXRa partner concentration 90 nM); assay: PBM binding z-score (relative to random genomic background probes); higher = stronger binding; sequences stand for … in GC…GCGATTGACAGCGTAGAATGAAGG
Give measured PBM binding z-score for each item. Keep answers brief.
Give bare numbers.

Consider the reported PBM binding z-score for these sequences:
{"sequence-text": "CGAAGTAGGTCATCCAGGACAGTGAATACATTGA", "system-name": "PPARg:RXRa (NR concentration 180 nM, RXRa partner concentration 90 nM)", "PBM binding z-score": 8.31}
{"sequence-text": "TGAATGAGGTTATAAGATCAGGGAACGTTGCAAA", "system-name": "PPARg:RXRa (NR concentration 180 nM, RXRa partner concentration 90 nM)", "PBM binding z-score": 1.22}
{"sequence-text": "CGAACTAGGTCAGAACAGGACCGTGAAGGATGAT", "system-name": "PPARg:RXRa (NR concentration 180 nM, RXRa partner concentration 90 nM)", "PBM binding z-score": 5.07}
{"sequence-text": "CGTCCAAGGTCGTAGGAGGTCAGTGAAGACAGAT", "system-name": "PPARg:RXRa (NR concentration 180 nM, RXRa partner concentration 90 nM)", "PBM binding z-score": 1.79}
{"sequence-text": "AGTCAAAGTTCATCTAGGTAACTTAAGATATGCT", "system-name": "PPARg:RXRa (NR concentration 180 nM, RXRa partner concentration 90 nM)", "PBM binding z-score": 6.6}

Working through the 6 sequences below one at a time, give PBM binding z-score for each.
1. TCATATAGCTAAACAGGTGAAAGTCCGTAAGTTA
2. ACTATTAGTTGACTTAGGACAACCGATACGACGC
3. GGAACGAGGCCAAAGTTGATAGCATCTGTCGACG
4. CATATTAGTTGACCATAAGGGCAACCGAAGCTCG
5. ATCTCTACGTAAGACTCAGTTCAGTGAAGAACGC
6. ACTATTAGTTGAGTTAGGGCAACCGATACGACGC

[out]
0.667
1.11
5.8
0.779
0.265
0.832

----------
tested on: PPARg:RXRa 90nM:30nM, anti-RXR (NR concentration 90 nM, RXRa partner concentration 30 nM); assay: PBM binding z-score (relative to random genomic background probes); higher = stronger binding; sequences stand for … in GC…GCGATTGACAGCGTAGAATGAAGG
reported-endpoint: PBM binding z-score
Answers are plain numbers.

Consider the reported PBM binding z-score for these sequences:
{"sequence-text": "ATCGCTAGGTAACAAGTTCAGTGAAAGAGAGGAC", "PBM binding z-score": 0.219}
{"sequence-text": "TGATATAGGTAAAGGTGAAAGTCGAACGATATGA", "PBM binding z-score": 5.25}
{"sequence-text": "TCTCGGAGGACACGAAGGACAGAGCTTTCCAGAG", "PBM binding z-score": 1.3}
{"sequence-text": "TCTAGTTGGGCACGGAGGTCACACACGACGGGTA", "PBM binding z-score": 2.96}

Working through the 3 sequences below one at a time, give PBM binding z-score for each.
1. CCTAGTGGGCCATCAGGTCATTGATATCAACGTT
2. ATATGTAGGTTATCGGGTTATTCAGTTTGCGCAT
3. CCTACTGGGCCAACAGGTCATTGATATCAACGTT

[out]
1: 2.74; 2: 4.37; 3: 4.24

Working through the 3 sequences below one at a time, give PBM binding z-score for each.
1. TAGCCTAGGTCATTCCGGGGCCAGTATAGAAAGC
2. CTCGTAAGGTCGTGCTCAGGTGAGTATACCAAAC
3. CGTCCAAGGTTATAGGAGGTCAGTGAAGACAGAT

[out]
1.01
1.07
0.943

Working through the 5 sequences below one at a time, give PBM binding z-score for each.
1. ACTTACGGGTCAACAAGGTTATAGCACGCGTATA
2. TATACAGGGTCAAAGGCTAGAGTACGAATGTCGA
3. GCTAGCAGGCCATTTGGGTCACTGAATGACGGGC
4. CCTATTAGTTAACCATAAGGGCAACCGAAGCTCG
5. ATCGAAAGGTCGACGACGTGAGTATACACCGTTT

[out]
4.02
6.71
-0.116
0.0193
1.77
